Hello, the source for this data is ChEMBL document CHEMBL1201862, in case you need it.

# testTarget: G-protein coupled receptor 55 (Homo sapiens)
# Sequence (Q9Y2T6 whole entry): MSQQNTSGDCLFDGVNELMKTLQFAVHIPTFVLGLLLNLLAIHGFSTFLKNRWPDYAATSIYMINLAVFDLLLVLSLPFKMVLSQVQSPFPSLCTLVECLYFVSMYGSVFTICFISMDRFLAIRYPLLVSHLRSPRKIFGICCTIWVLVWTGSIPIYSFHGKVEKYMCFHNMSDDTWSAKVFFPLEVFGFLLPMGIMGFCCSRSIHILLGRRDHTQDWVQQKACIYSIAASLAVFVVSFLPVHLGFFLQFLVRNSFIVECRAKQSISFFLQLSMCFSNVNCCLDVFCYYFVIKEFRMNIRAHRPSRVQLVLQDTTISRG
# testDetails: inhibition of LPI-stimulated GPR55 beta-arrestin translocation – imaging, U2OS, beta-arrestin-GFP, LPI agonist, primary screen (AID 2013);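 note: antagonist potency measured as reduced agonist-driven arrestin aggregation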
# Type: functional
The source made the active and inactive calls.
Possible outcomes: active, inactive

compound="CC(C)(C)n1nnnc1C(c1cccs1)N(Cc1ccccc1)Cc1cccnc1 (centres undefined)" assignedcategory=active
compound=Cc1ccc(S(=O)(=O)N2CCN(c3nc(C)c4c(c3C#N)CC(C)(C)OC4)CC2)cc1 assignedcategory=inactive
compound=Cc1ccc(-n2cc3c(-c4cccc(Br)c4)nnc(C)c3n2)cc1 assignedcategory=active
compound=O=C(CC12CC3CC(CC(C3)C1)C2)NC(=S)NCc1ccco1 assignedcategory=active

###

Entries annotated with measured EC50
# testDetails: Trypanosoma cruzi growth suppression in host cells – NIH3T3 host cells, beta-gal luminescence, confirmation (AID 2044);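 note: intracellular parasites grown in NIH/3T3 mouse fibroblasts as host cells; luminescent beta-galactosidase reporter signal from transgenic T. cruzi replicating inside host cells; inhibitors lower the luminescence signal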
# Format: functional, cell-based
Activity calls are given as the source filed them.
assayMetric: EC50

compound=O=C(CC12CC3CC(CC(C3)C1)C2)NC(=S)NCc1ccco1 assaymetric=EC50 observedvalue="2290 nM (active)"
compound=Cc1cc(C)c2sc(N(CCCN(C)C)C(=O)c3ccc(S(=O)(=O)N4CCCc5ccccc54)cc3)nc2c1 assaymetric=EC50 observedvalue="452 nM (active)"
compound=CCc1ccc2nc(N(CCCN(C)C)C(=O)c3ccc4c(c3)OCCO4)sc2c1 assaymetric=EC50 observedvalue="214 nM (active)"
compound=CN1C/C(=C/c2ccsc2)C(=O)/C(=C/c2ccsc2)C1 assaymetric=EC50 observedvalue="156 nM (active)"
compound=Cc1cc2ncn(/N=C/c3ccc([N+](=O)[O-])o3)c2cc1C assaymetric=EC50 observedvalue="195 nM (active)"
compound=COc1ccccc1NS(=O)(=O)c1cccc(NC(=O)c2sc3ccccc3c2Cl)c1 assaymetric=EC50 observedvalue="1190 nM (active)"
compound=COc1ccc(-c2nc(NC(=O)c3cc(C(C)(C)C)nn3C)sc2C)cc1 assaymetric=EC50 observedvalue="1760 nM (active)"
compound=Cc1cc(Cl)ccc1OCCCC(=O)NC1CCN(C)CC1 assaymetric=EC50 observedvalue="164 nM (active)"
compound="Cc1ccc(NC(C)C(=O)N/N=C/c2ccc([N+](=O)[O-])s2)cc1 (stereo unspecified)" assaymetric=EC50 observedvalue="494 nM (active)"
compound=Cc1ccc(-c2cc(C(F)F)n3ncc(C(=O)N4CCc5ccccc5C4)c3n2)cc1 assaymetric=EC50 observedvalue="1720 nM (active)"
compound="COc1ccccc1N1CCN(C(CNC(=O)Oc2ccccc2)c2cccnc2)CC1 (stereo unspecified)" assaymetric=EC50 observedvalue="5420 nM (active)"

###

# testTarget: Glucose-6-phosphate 1-dehydrogenase (Homo sapiens, UniProt P11413)
# Sequence (P11413 whole entry): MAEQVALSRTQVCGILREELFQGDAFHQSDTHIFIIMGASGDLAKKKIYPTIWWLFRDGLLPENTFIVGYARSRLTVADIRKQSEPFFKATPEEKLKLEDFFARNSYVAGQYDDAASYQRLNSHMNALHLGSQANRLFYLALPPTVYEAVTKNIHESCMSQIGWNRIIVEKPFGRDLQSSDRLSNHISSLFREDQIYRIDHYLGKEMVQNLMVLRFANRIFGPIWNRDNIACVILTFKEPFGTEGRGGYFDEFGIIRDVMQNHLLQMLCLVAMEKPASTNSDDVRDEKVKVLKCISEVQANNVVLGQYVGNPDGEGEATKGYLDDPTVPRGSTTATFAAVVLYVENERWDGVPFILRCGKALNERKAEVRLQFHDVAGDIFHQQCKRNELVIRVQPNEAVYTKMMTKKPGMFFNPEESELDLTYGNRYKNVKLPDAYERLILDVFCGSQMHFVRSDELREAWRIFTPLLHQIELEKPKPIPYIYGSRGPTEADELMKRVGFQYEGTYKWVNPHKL
# testDetails: inhibition of Homo sapiens G6PD, dose series – biochemical, fluorescence, selectivity assay for P. falciparum G6PD inhibitor project, dose response (AID 504792)
# Assay type: functional
Active and inactive are the calls of the source.
assayMetric: IC50

compoundstructurestring=CC(C)c1nnc(NC(=O)c2sc3ccccc3c2Cl)s1 observedvalue="67.9 µM (inactive)"
compoundstructurestring=Brc1cc2[nH]cnc2c2ccccc12 observedvalue="> 80 µM (inactive)"
compoundstructurestring=Cc1cnc(C=NNC(N)=S)c2cccc(N)c12 observedvalue="32.1 µM (inactive)"
compoundstructurestring=Cc1cc(NC(=O)c2oc3ccccc3c2C)ccc1-n1cnnn1 observedvalue="> 80 µM (inactive)"

###

# testDetails: Luminescence Cell-Based Dose Retest to Confirm Inhibitors of Cancer Stem Cells. [Related pubchem assays (depositor defined):AID2717, AID2721]
# Format: functional
# details: Homo sapiens
Calls of active or inactive are those of the source.
Entries annotated with measured AC50
assayMetric: AC50

molecule=CCCCn1c(=O)c(C(=O)NCc2ccc(Cl)cc2)c(O)c2ccccc21 assaymetric=AC50 observedvalue="5.25 µM (active)"
molecule="Cc1ccc(Oc2nc(CN3CCOCC3)nc3sc4c(c23)CCC(C)C4)cc1C (configuration not stated)" assaymetric=AC50 observedvalue="6.74 µM (active)"
molecule=O=C(C#Cc1ccccc1)Nc1cccc(F)c1 assaymetric=AC50 observedvalue="2.35 µM (active)"
molecule=Cc1cc(C)c2sc(N(CCCN(C)C)C(=O)c3ccc(S(=O)(=O)N4CCCc5ccccc54)cc3)nc2c1 assaymetric=AC50 observedvalue="4.46 µM (active)"
molecule="O=C(C[S+]([O-])c1ccc(C(F)(F)F)cc1[N+](=O)[O-])Oc1ccccc1 (configuration not stated)" assaymetric=AC50 observedvalue="3.71 µM (active)"
molecule=O=C(c1cc(-c2cccc(O)c2)on1)N1CCN(C(c2ccccc2)c2ccccc2)CC1 assaymetric=AC50 observedvalue="1.58 µM (active)"
molecule=CNC(=O)c1c(NC(=O)c2ccc(S(=O)(=O)N3CCCc4ccccc43)cc2)sc2c1CCN(C)C2 assaymetric=AC50 observedvalue="0.206 µM (active)"

###

# testTarget: Nonstructural protein 1 (Influenza A virus, UniProt Q194T2)
# Sequence (Q194T2 whole entry): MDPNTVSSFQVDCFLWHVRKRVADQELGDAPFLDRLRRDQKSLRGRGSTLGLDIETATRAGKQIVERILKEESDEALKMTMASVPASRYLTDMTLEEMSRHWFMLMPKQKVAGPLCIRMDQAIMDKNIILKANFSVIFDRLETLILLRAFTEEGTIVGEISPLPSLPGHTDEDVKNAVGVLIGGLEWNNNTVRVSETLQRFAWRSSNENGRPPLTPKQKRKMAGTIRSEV
# Assay type: functional, Influenza A virus (A/California/07/2009(H1N1))
The source made the active and inactive calls.
assayMetric: IC50

compoundstructurestring=O=C1C(Nc2ccccc2)=C/C(=N/S(=O)(=O)c2cccs2)c2ccccc21 assaymetric=IC50 observedvalue="9.04 µM (active)"
compoundstructurestring=Cc1cnc(C=NNC(N)=S)c2cccc(N)c12 assaymetric=IC50 observedvalue="2.39 µM (active)"
compoundstructurestring=COCc1cc(CN2CCCC2)c(O)c2ncccc12 assaymetric=IC50 observedvalue="2.31 µM (active)"
compoundstructurestring=CC1CCN(C2=C(NS(=O)(=O)c3ccccc3)C(=O)c3ccccc3C2=O)CC1 assaymetric=IC50 observedvalue="11.3 µM (active)"
compoundstructurestring=Cc1cccnc1Nc1nc(-c2ccccn2)cs1 assaymetric=IC50 observedvalue="2.83 µM (active)"

###

# testTarget: UniProt:P11940
# Sequence (P11940 whole entry, the tested form may be a part): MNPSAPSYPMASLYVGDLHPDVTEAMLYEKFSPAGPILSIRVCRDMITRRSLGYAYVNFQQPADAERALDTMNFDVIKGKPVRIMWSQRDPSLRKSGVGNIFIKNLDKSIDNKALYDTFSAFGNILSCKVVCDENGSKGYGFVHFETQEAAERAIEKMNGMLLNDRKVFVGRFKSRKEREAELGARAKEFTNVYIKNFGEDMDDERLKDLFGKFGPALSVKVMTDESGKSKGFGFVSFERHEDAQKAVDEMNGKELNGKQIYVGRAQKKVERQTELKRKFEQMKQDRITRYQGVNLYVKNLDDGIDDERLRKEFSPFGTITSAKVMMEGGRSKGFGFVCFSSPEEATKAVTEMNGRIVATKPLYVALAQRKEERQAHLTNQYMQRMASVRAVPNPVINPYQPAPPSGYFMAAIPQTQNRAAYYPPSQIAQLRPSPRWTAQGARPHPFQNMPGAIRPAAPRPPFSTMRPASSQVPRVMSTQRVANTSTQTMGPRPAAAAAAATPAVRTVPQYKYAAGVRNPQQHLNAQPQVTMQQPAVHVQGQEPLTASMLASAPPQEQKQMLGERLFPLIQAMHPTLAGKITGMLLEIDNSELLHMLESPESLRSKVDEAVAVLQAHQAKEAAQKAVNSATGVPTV
# testDetails: MLLE domain peptide-binding blockers, IC50 – biochemical, fluorescence polarization, FITC-PAM2 peptide, dose response (AID 602259)
# Assay type: functional
# details: read-out: IC50_Mean
Activity calls are given as the source filed them.
assayMetric: IC50

molecule=CN(Cc1ccc(Cl)cc1)C(=O)COC(=O)CSc1ccc([N+](=O)[O-])cc1 observedvalue="> 66 µM (inactive)"
molecule=S=C(Nc1ccc(Nc2ccccc2)cc1)Nc1ccccn1 observedvalue="> 66 µM (inactive)"
molecule=C=CCSc1nc2c(c(=O)[nH]c(=O)n2C)n1C(C)C observedvalue="> 66 µM (inactive)"
molecule=O=C(NC(=S)N1C[C@H]2C[C@H](C1)c1cccc(=O)n1C2)c1ccc(Cl)cc1 observedvalue="> 66 µM (inactive)"
molecule=CCOC(=O)[C@H]1[C@H]2COc3ccc(Br)cc3[C@H]2N2C(=O)CN(Cc3ccc(C)cc3)C(=O)[C@@]12C observedvalue="49.1 µM (inactive)"
molecule=Cc1cc(C)c[n+](-c2[n-]c(=O)sc2C=NNC(=O)c2cccnc2)c1 observedvalue="59.7 µM (inactive)"
molecule="NC(=O)N1c2ccccc2CC(=O)c2ccccc21 [OXCARBAZEPINE]" observedvalue="28.1 µM (inactive)"
molecule=NC(=S)Nc1ccc(S(=O)(=O)c2ccc(NC(N)=S)cc2)cc1 observedvalue="> 66 µM (inactive)"
molecule=CCC(=O)Nc1ccc(Cl)c(NC(=S)NC(=O)COc2ccccc2)c1 observedvalue="> 66 µM (inactive)"
molecule=Cc1cnc(C=NNC(N)=S)c2cccc(N)c12 observedvalue="> 66 µM (inactive)"
molecule="CNC(=O)CSP(=S)(OC)OC [DIMETHOATE]" observedvalue="> 66 µM (inactive)"
molecule=CN(Cc1ccccc1)S(=O)(=O)c1ccc(NC(=S)NC(=O)C(C)(C)C)cc1 observedvalue="> 66 µM (inactive)"

###

# testTarget: Heat shock factor protein 1 (Mus musculus, UniProt P38532)
# Sequence (P38532 whole entry): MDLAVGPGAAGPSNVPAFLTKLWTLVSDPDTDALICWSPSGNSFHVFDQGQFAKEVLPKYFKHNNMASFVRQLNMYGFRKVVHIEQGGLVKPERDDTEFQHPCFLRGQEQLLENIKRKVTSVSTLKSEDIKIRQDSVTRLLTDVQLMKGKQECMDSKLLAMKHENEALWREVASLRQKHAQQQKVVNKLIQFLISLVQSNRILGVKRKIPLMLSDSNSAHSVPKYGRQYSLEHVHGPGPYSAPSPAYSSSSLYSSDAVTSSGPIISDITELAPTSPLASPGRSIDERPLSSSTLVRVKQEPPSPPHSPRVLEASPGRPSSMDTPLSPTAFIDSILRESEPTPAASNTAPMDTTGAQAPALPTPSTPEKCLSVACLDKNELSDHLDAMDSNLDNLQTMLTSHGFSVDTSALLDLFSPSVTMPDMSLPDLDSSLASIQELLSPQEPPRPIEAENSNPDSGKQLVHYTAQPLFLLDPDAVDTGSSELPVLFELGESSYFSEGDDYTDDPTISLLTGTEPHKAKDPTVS
# testDetails: decrease of HSF1-responsive luciferase luminescence – cell-based, NIH3T3, dose retest, confirmation (AID 2382);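 note: NIH3T3 fibroblasts with HSF1-driven luciferase reporter stressed by proteasome inhibitor MG132; luminescence from HSF1-driven luciferase expression after 8 hours of MG132 stress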
# Assay type: functional
The source made the active and inactive calls.
assayMetric: EC50

compound=CC(C)(C)C(=O)OCc1nc(-c2ccc3c(c2)OCCO3)cs1 testtarget="Heat shock factor protein 1 (Mus musculus, UniProt P38532)" observedvalue="> 195 µM (not active)"
compound=O=C(Oc1ccccc1Cl)c1ccc(-n2cncn2)nc1 testtarget="Heat shock factor protein 1 (Mus musculus, UniProt P38532)" observedvalue="> 195 µM (not active)"
compound=COc1ccc(NC(=O)CN(C)CC(=O)Nc2ccc3c(c2)CCC3)cc1 testtarget="Heat shock factor protein 1 (Mus musculus, UniProt P38532)" observedvalue="> 195 µM (not active)"
compound=O=C1C(Nc2ccccc2)=C/C(=N/S(=O)(=O)c2cccs2)c2ccccc21 testtarget="Heat shock factor protein 1 (Mus musculus, UniProt P38532)" observedvalue="1.09 µM (active)"
compound=O=C(/C=C/c1ccc(Br)o1)NCCCN1CCOCC1 testtarget="Heat shock factor protein 1 (Mus musculus, UniProt P38532)" observedvalue="> 195 µM (not active)"
compound="O=C(CC1Nc2ccccc2NC1=O)Nc1ccccc1NC(=O)CC1Nc2ccccc2NC1=O (stereo unspecified)" testtarget="Heat shock factor protein 1 (Mus musculus, UniProt P38532)" observedvalue="> 195 µM (not active)"
